Where do the numbers come from? From paper PMC10669220.

# System: human embryonic kidney (HEK293-T) cell line
# EXPERIMENT SUMMARY: MTT cytotoxicity assay, HEK293-T
# PARTICULARS: Homo sapiens, HEK-293T, read-out: IC50 Hek293-T
pIC50: −log10 of the molar value.
PROPERTY: pIC50

[[record]]
compound = "CC1=[N+]([O-])C(c2ccccc2)Nc2c(I)cc(Br)cc21 (stereo not drawn)"
observed_result = 4.46

[[record]]
compound = "COc1ccc(C2Nc3ccc(Br)cc3C(C)=[N+]2[O-])cc1 (stereo not drawn)"
observed_result = 4.43

[[record]]
compound = "CC1=[N+]([O-])C(c2ccc(F)cc2)Nc2c(Br)cc(I)cc21 (stereo not drawn)"
observed_result = 4.49


---

Catalogue of Cell viability percentage, MCF-7 readings, one per entry.
# Tested on: breast cancer (MCF-7) cell line
# EXPERIMENT SUMMARY: MTT cytotoxicity assay, MCF-7
# PARTICULARS: Conc. 25 (µM per method); Table S2
PROPERTY: Cell viability percentage, MCF-7

[[record]]
molecule = "CC1=[N+]([O-])C(c2ccc(Cl)cc2)Nc2ccc(Br)cc21 (stereo not shown)"
observed_result = "41,6999%"

[[record]]
molecule = "COc1ccc(C2Nc3c(I)cc(Br)cc3C(C)=[N+]2[O-])cc1 (stereo not shown)"
observed_result = "35,1896%"

[[record]]
molecule = "CC1=[N+]([O-])C(c2ccccc2)Nc2ccc(I)cc21 (stereo not shown)"
observed_result = "19,7272%"

[[record]]
molecule = "CC1=[N+]([O-])C(c2ccccc2)Nc2c(Br)cc(I)cc21 (stereo not shown)"
observed_result = "20,6088%"

[[record]]
molecule = "CC1=[N+]([O-])C(c2ccc(Cl)cc2)Nc2c(I)cc(Br)cc21 (stereo not shown)"
observed_result = "38,7891%"

[[record]]
molecule = "CC1=[N+]([O-])C(c2ccc(F)cc2)Nc2ccc(I)cc21 (stereo not shown)"
observed_result = "32,649%"

[[record]]
molecule = "CC1=[N+]([O-])C(c2ccc(F)cc2)Nc2ccc(Br)cc21 (stereo not shown)"
observed_result = "33,8157%"


---

# Test system: breast cancer (MCF-7) cell line
# EXPERIMENT SUMMARY: MTT cytotoxicity assay, MCF-7
# PARTICULARS: Conc. 5 (µM per method); Table S2
# Cell viability percentage, MCF-7 per entry
PROPERTY: Cell viability percentage, MCF-7

[[record]]
compound = "CC1=[N+]([O-])C(c2ccc(F)cc2)Nc2ccc(I)cc21 (stereo not drawn)"
property = "Cell viability percentage, MCF-7"
observed_result = "62,4071%"

[[record]]
compound = "CC1=[N+]([O-])C(c2ccccc2)Nc2c(Br)cc(I)cc21 (stereo not drawn)"
property = "Cell viability percentage, MCF-7"
observed_result = "24,1517%"

[[record]]
compound = "CC1=[N+]([O-])C(c2ccc(Cl)cc2)Nc2c(I)cc(Br)cc21 (stereo not drawn)"
property = "Cell viability percentage, MCF-7"
observed_result = "41,6001%"

[[record]]
compound = "CC1=[N+]([O-])C(c2ccccc2)Nc2c(I)cc(Br)cc21 (stereo not drawn)"
property = "Cell viability percentage, MCF-7"
observed_result = "22,006%"

[[record]]
compound = "CC1=[N+]([O-])C(c2ccc(Cl)cc2)Nc2ccc(Br)cc21 (stereo not drawn)"
property = "Cell viability percentage, MCF-7"
observed_result = "44,7938%"

[[record]]
compound = "CC1=[N+]([O-])C(c2ccc(F)cc2)Nc2c(I)cc(Br)cc21 (stereo not drawn)"
property = "Cell viability percentage, MCF-7"
observed_result = "53,8289%"

[[record]]
compound = "COc1ccc(C2Nc3c(I)cc(Br)cc3C(C)=[N+]2[O-])cc1 (stereo not drawn)"
property = "Cell viability percentage, MCF-7"
observed_result = "55,5856%"

[[record]]
compound = "COc1ccc(C2Nc3ccc(Br)cc3C(C)=[N+]2[O-])cc1 (stereo not drawn)"
property = "Cell viability percentage, MCF-7"
observed_result = "46,8729%"

[[record]]
compound = "CC1=[N+]([O-])C(c2ccc(F)cc2)Nc2ccc(Br)cc21 (stereo not drawn)"
property = "Cell viability percentage, MCF-7"
observed_result = "38,34%"

